Source: PubChem BioAssay (NCI)

test system: UACC-257 melanoma; experiment: NCI-60 one-dose screen, 48 h; details: 10 µM unless noted
About 83,000 compounds went through this panel and 20% of them were active in at least one assay; those are over-represented in the sample as a whole. Calls of active or inactive are those of the source. Rule for the calls: active = growth percent below 10; inactive = the rest.
Give one outcome, nothing more. List: active, inactive

| MOLECULE | ASSIGNED CLASS |
| --- | --- |
| COc1nccc2cc3c(=O)n4c(cc5ccccc54)c(=O)n3c12 | inactive |

Q) Fill in: this test's call for "CC(C)C[C@H](C(=O)N[C@@H](C)C(N)=O)N1CC=CCN(O)S1(=O)=O" is ___
A) inactive

Q) Same read-out for "COc1ccc(Cn2c(Br)c3c(c2-c2cc(OC)c(OC)c(OC)c2)CCc2sc(NC(C)=O)nc2-3)cc1" ?
A) inactive

Q) Same read-out for "NC(=O)CSc1nc(-c2ccc(F)cc2)cc(-c2ccco2)n1" ?
A) inactive

Q) Same read-out for COc1ccc(C2NCCc3c2[nH]c2ccccc32)cc1CN1CCN(c2ccc(F)cc2)CC1 (centres undefined) ?
A) active

Q) Same read-out for CCOc1cc(Cl)c(C(C)NC(=O)c2cccc(OC)c2)cc1OCC (centres undefined) ?
A) active
